These entries and their values trace back to patent US11376241B2.

biological target: AhR (Homo sapiens); construct: The HepG2 CYP1A1-Luc cells do express basal luciferase activity that can be increased via potent AhR agonists or decreased via potent AhR antagonists; endogenous in cells; assay: AhR direct luciferase reporter assay in HepG2 cells (HepG2 CYP1A1-LUC); settings: 18 hours, luciferase activity, no exogenous AhR agonist or 10 nM VAF347, read-out: AhR potency (AhR antagonistic potency, IC50)
Sequence (P35869 11-848): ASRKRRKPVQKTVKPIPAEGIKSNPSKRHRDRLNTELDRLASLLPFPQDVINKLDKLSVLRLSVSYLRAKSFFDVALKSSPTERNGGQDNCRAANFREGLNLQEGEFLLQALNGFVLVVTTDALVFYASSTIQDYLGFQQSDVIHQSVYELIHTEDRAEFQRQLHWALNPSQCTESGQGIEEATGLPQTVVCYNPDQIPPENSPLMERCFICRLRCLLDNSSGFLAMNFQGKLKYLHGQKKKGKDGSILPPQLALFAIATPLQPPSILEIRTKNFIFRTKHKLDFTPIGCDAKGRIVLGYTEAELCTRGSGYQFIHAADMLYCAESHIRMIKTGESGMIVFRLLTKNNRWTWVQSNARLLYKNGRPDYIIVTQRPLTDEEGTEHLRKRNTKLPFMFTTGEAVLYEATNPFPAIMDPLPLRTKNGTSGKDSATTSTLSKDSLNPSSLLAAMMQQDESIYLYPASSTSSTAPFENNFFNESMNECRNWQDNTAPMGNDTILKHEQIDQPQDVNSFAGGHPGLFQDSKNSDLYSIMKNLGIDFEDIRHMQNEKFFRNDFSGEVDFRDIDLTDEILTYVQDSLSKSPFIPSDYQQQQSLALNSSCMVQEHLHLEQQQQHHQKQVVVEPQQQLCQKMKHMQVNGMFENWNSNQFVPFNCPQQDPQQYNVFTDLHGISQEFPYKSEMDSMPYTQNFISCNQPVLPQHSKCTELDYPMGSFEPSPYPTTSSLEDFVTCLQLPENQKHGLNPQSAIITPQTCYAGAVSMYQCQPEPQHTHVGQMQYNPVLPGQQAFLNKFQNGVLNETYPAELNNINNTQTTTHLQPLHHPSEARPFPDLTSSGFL
Recorded IC50, one value per entry.

{"COMPOUND SMILES": "Cc1ccccc1-c1cc2cnc(NC(=O)c3ccnn3C)cc2[nH]1", "IC50": "100 to 1000 nM"}
{"COMPOUND SMILES": "Cn1ccnc1C(=O)Nc1cc2[nH]c(-c3ccccc3C(F)F)cc2cn1", "IC50": "< 100 nM"}
{"COMPOUND SMILES": "Cn1ncnc1C(=O)Nc1cc2[nH]c(-c3cc(F)ccc3C(F)(F)F)cc2cn1", "IC50": "< 100 nM"}
{"COMPOUND SMILES": "Cc1scnc1C(=O)Nc1cc2[nH]c(-c3ccccc3C(F)F)cc2cn1", "IC50": "< 100 nM"}
{"COMPOUND SMILES": "CN(C(=O)c1ncnn1C)c1cc2[nH]c(-c3cc(F)ccc3C(F)F)cc2cn1", "IC50": "100 to 1000 nM"}
{"COMPOUND SMILES": "Cn1ncnc1C(=O)Nc1cc2[nH]c(-c3ccccc3C(F)F)c(C#N)c2cn1", "IC50": "100 to 1000 nM"}
{"COMPOUND SMILES": "Cn1ncnc1C(=O)Nc1cc2[nH]c(-c3cc(F)c(F)cc3C(F)F)cc2cn1", "IC50": "100 to 1000 nM"}
{"COMPOUND SMILES": "Cn1ncnc1C(=O)Nc1cc2[nH]c(-c3cc(F)ccc3C(F)F)cc2cn1", "IC50": "< 100 nM"}
{"COMPOUND SMILES": "Cn1ncnc1C(=O)Nc1cc2[nH]c(-c3cc(C(F)(F)F)ccc3C(F)(F)F)cc2cn1", "IC50": "< 100 nM"}
{"COMPOUND SMILES": "Cn1ncnc1C(=O)Nc1cc2[nH]c(-c3ccoc3C(F)F)cc2cn1", "IC50": "100 to 1000 nM"}
{"COMPOUND SMILES": "Cn1ncnc1C(=O)Nc1cc2[nH]c(-c3ccccc3C(C)(C)O)cc2cn1", "IC50": "> 1000 nM"}
{"COMPOUND SMILES": "Cn1ncnc1C(=O)Nc1cc2[nH]c(-c3ccccc3C(F)F)cc2cn1", "IC50": "< 100 nM"}
{"COMPOUND SMILES": "Cn1cnnc1C(=O)Nc1cc2[nH]c(-c3cc(F)ccc3C(F)(F)F)cc2cn1", "IC50": "< 100 nM"}
{"COMPOUND SMILES": "Cc1ocnc1C(=O)Nc1cc2[nH]c(-c3ccccc3C(F)F)cc2cn1", "IC50": "< 100 nM"}
